tested on: S. aureus Smith (ATCC 13709); assay: Mouse systemic infection (septicemia) model, S. aureus Smith; type: in vivo; conditions: Staphylococcus aureus, ATCC13709; CD-1 female mice, PO, dose that prevents 50% of the mice from death, 48 hours; read-out: SA Smith septicemia PD50 PO
measuredQuantity: log10(ED50) (log10 of the value in mg/kg)
Answers are given as log10 of ED50 in mg/kg.

>>> observedmeasurement("CN(C)[C@@H]1C(O)=C(C(N)=O)C(=O)[C@@]2(O)C(O)=C3C(=O)c4c(O)cc(CN(C)C(C)(C)C5CC5)c(F)c4C[C@H]3C[C@@H]12")
0.54
>>> observedmeasurement("CN(C)[C@@H]1C(O)=C(C(N)=O)C(=O)[C@@]2(O)C(O)=C3C(=O)c4c(O)cc(CN(C)C(C)(C)C)c(Cl)c4C[C@H]3C[C@@H]12")
0.54
>>> observedmeasurement("C[C@@H]1CCC[C@H](C)N1Cc1cc(O)c2c(c1F)C[C@H]1C[C@H]3[C@H](N(C)C)C(O)=C(C(N)=O)C(=O)[C@@]3(O)C(O)=C1C2=O")
0.93
>>> observedmeasurement("CCC(C)(C)N(C)Cc1cc(O)c2c(c1F)C[C@H]1C[C@H]3[C@H](N(C)C)C(O)=C(C(N)=O)C(=O)[C@@]3(O)C(O)=C1C2=O")
0.48
>>> observedmeasurement("CN(C)[C@@H]1C(O)=C(C(N)=O)C(=O)[C@@]2(O)C(O)=C3C(=O)c4c(O)cc(CN5CCCCCC5)c(Cl)c4C[C@H]3C[C@@H]12")
0.92

Hi team, please reply with log10(ED50) for each item in this list.
1. CC1CCN(Cc2cc(O)c3c(c2F)C[C@H]2C[C@H]4[C@H](N(C)C)C(O)=C(C(N)=O)C(=O)[C@@]4(O)C(O)=C2C3=O)CC1
2. CN(C)[C@@H]1C(O)=C(C(N)=O)C(=O)[C@@]2(O)C(O)=C3C(=O)c4c(cc(F)c(CNCC(C)(C)C)c4O)C[C@H]3C[C@@H]12
3. CC(C)CNCc1cc(O)c2c(c1F)C[C@H]1C[C@H]3[C@H](N(C)C)C(O)=C(C(N)=O)C(=O)[C@@]3(O)C(O)=C1C2=O
4. CN(C)[C@@H]1C(O)=C(C(N)=O)C(=O)[C@@]2(O)C(O)=C3C(=O)c4c(O)cc(CN5CCCC5(C)C)c(Cl)c4C[C@H]3C[C@@H]12
5. CN(C)[C@@H]1C(O)=C(C(N)=O)C(=O)[C@@]2(O)C(O)=C3C(=O)c4c(O)cc(CN(C)C(C)(C)C)c(F)c4C[C@H]3C[C@@H]12
6. CN(C)[C@@H]1C(O)=C(C(N)=O)C(=O)[C@@]2(O)C(O)=C3C(=O)c4c(O)cc(CN5CCCC5(C)C)c(F)c4C[C@H]3C[C@@H]12

1: 1.16; 2: 1.09; 3: 1.09; 4: 0.79; 5: 0.15; 6: 0.32

----------
assay: Monkey PK; type: in vivo; conditions: cynomolgus monkey, plasma; cynomolgus monkeys, single IV dose of 1 mg/kg; read-out: Cl, IV, monkey (converted)
measuredQuantity: clearance (mL/min/kg)
Give bare numbers, in mL/min/kg.

Param item = COc1c(CN2CCCCC2)cc(O)c2c1C[C@H]1C[C@H]3[C@H](N(C)C)C(O)=C(C(N)=O)C(=O)[C@@]3(O)C(O)=C1C2=O ; retrieve measured clearance.
2.4

----------
assay: Pharmacokinetic studies in rats; format: in vivo; details: rat, plasma; male Sprague Dawley rats, fasted, IV 1 mg/kg; read-out: Cl, IV Rat PK
Please use fulfilled for clearance under 10 mL/min/kg and not fulfilled for everything else, ties included.

>>> assignedcategory("CN(C)[C@@H]1C(O)=C(C(N)=O)C(=O)[C@@]2(O)C(O)=C3C(=O)c4c(O)cc(CN(C)C(C)(C)C)c(F)c4C[C@H]3C[C@@H]12")
"not fulfilled"

# strict comparison: is reported clearance < 10 mL/min/kg? input = CC(C)CNCc1cc(O)c2c(c1F)C[C@H]1C[C@H]3[C@H](N(C)C)C(O)=C(C(N)=O)C(=O)[C@@]3(O)C(O)=C1C2=O
fulfilled

# strict comparison: is reported clearance < 10 mL/min/kg? input = CN(C)[C@@H]1C(O)=C(C(N)=O)C(=O)[C@@]2(O)C(O)=C3C(=O)c4c(O)cc(CN(C)C(C)(C)C)c(Cl)c4C[C@H]3C[C@@H]12
not fulfilled

# strict comparison: is reported clearance < 10 mL/min/kg? input = CCC(C)(C)N(C)Cc1cc(O)c2c(c1F)C[C@H]1C[C@H]3[C@H](N(C)C)C(O)=C(C(N)=O)C(=O)[C@@]3(O)C(O)=C1C2=O
not fulfilled

# strict comparison: is reported clearance < 10 mL/min/kg? input = CN(C)c1c(CN2CCCCC2)cc(O)c2c1C[C@H]1C[C@H]3[C@H](N(C)C)C(O)=C(C(N)=O)C(=O)[C@@]3(O)C(O)=C1C2=O
not fulfilled

----------
Consider the following molecules; for each one, report its Cmax.
experiment: Pharmacokinetic studies in rats; format: in vivo; conditions: rat; male Sprague Dawley rats, fasted, IV 1 mg/kg, plasma; read-out: Cmax, IV Rat PK
One number for each entry, in ng/mL.

Study these solved cases before continuing.
>>> observedmeasurement("CN(C)[C@@H]1C(O)=C(C(N)=O)C(=O)[C@@]2(O)C(O)=C3C(=O)c4c(O)cc(CN5CCCC5(C)C)c(F)c4C[C@H]3C[C@@H]12")
126
>>> observedmeasurement("CN(C)[C@@H]1C(O)=C(C(N)=O)C(=O)[C@@]2(O)C(O)=C3C(=O)c4c(O)cc(CN(C)C(C)(C)C5CC5)c(F)c4C[C@H]3C[C@@H]12")
112
>>> observedmeasurement("CC1CCN(Cc2cc(O)c3c(c2F)C[C@H]2C[C@H]4[C@H](N(C)C)C(O)=C(C(N)=O)C(=O)[C@@]4(O)C(O)=C2C3=O)CC1")
518

Please find the next molecule below.
Param item = COc1c(CN2CCCCC2)cc(O)c2c1C[C@H]1C[C@H]3[C@H](N(C)C)C(O)=C(C(N)=O)C(=O)[C@@]3(O)C(O)=C1C2=O ; retrieve measured Cmax.
795

----------
Assay: Pharmacokinetic studies in rats
Assay type: in vivo
Settings: rat; male Sprague Dawley rats, fasted, oral gavage 10 mg/kg, plasma; read-out: AUC, Oral Rat PK
Method: Pharmacokinetic Studies in Rats Test compounds were evaluated in fasted (no food for 18 hours prior to dosing) male Sprague Dawley rats (3 animals per group) by administration of 1 mg/kg intravenously into the jugular vein and […] by oral gavage. Ten plasma samples were drawn for each dosing route up to 24 hours into heparin-coated vacutainer tubes. The plasma concentrations of the test compounds were quantified by LC/MS/MS using an internal standards. […]
Consider the following compounds; for each one, report its AUC.
Numbers only, in ng·h/mL.

Study these solved cases before continuing.
>>> observedmeasurement("COc1c(CN2CCCCC2)cc(O)c2c1C[C@H]1C[C@H]3[C@H](N(C)C)C(O)=C(C(N)=O)C(=O)[C@@]3(O)C(O)=C1C2=O")
2230
>>> observedmeasurement("CN(C)[C@@H]1C(O)=C(C(N)=O)C(=O)[C@@]2(O)C(O)=C3C(=O)c4c(O)cc(CN(C)C(C)(C)C5CC5)c(F)c4C[C@H]3C[C@@H]12")
1600
>>> observedmeasurement("CCC(C)(C)N(C)Cc1cc(O)c2c(c1F)C[C@H]1C[C@H]3[C@H](N(C)C)C(O)=C(C(N)=O)C(=O)[C@@]3(O)C(O)=C1C2=O")
4380
>>> observedmeasurement("CC1CCN(Cc2cc(O)c3c(c2F)C[C@H]2C[C@H]4[C@H](N(C)C)C(O)=C(C(N)=O)C(=O)[C@@]4(O)C(O)=C2C3=O)CC1")
4980
>>> observedmeasurement("CC(C)CNCc1cc(O)c2c(c1F)C[C@H]1C[C@H]3[C@H](N(C)C)C(O)=C(C(N)=O)C(=O)[C@@]3(O)C(O)=C1C2=O")
6160

Please find the next compound below.
Param item = CN(C)[C@@H]1C(O)=C(C(N)=O)C(=O)[C@@]2(O)C(O)=C3C(=O)c4c(O)cc(CN(C)C(C)(C)C)c(Cl)c4C[C@H]3C[C@@H]12 ; retrieve measured AUC.
2260

----------
assay: Pharmacokinetic studies in rats; type: in vivo; conditions: rat, plasma; male Sprague Dawley rats, fasted, oral 10 mg/kg vs IV 1 mg/kg; read-out: % F (oral bioavailability), Oral Rat PK
Consider the following molecules; for each one, report its bioavailability.
A complete answer gives the number followed by the unit.

Study these solved cases before continuing.
>>> observedmeasurement("CN(C)c1c(CN2CCCCC2)cc(O)c2c1C[C@H]1C[C@H]3[C@H](N(C)C)C(O)=C(C(N)=O)C(=O)[C@@]3(O)C(O)=C1C2=O")
"31.6%"
>>> observedmeasurement("CN(C)[C@@H]1C(O)=C(C(N)=O)C(=O)[C@@]2(O)C(O)=C3C(=O)c4c(O)cc(CN(C)C(C)(C)C)c(F)c4C[C@H]3C[C@@H]12")
"9.1%"
>>> observedmeasurement("CCC(C)(C)N(C)Cc1cc(O)c2c(c1F)C[C@H]1C[C@H]3[C@H](N(C)C)C(O)=C(C(N)=O)C(=O)[C@@]3(O)C(O)=C1C2=O")
"44.7%"

Param item = CC1CCN(Cc2cc(O)c3c(c2F)C[C@H]2C[C@H]4[C@H](N(C)C)C(O)=C(C(N)=O)C(=O)[C@@]4(O)C(O)=C2C3=O)CC1 ; retrieve measured bioavailability.
14.9%

// data source = patent US9315451B2
